# assay_comment: 2-week oral dose rat toxicology / TK study F
# Type: in vivo
# settings: rat, plasma; rats PO 200 mg/kg (susp), historical; read-out: Mean AUC0-24 hr
experimental_endpoint: AUC(0-t)

Fill in: AUC(0-t) of "COc1cnc(-n2cnc(C)n2)c2[nH]cc(C(=O)C(=O)N3CCN(C(=O)c4ccccc4)CC3)c12" is ___
1080 µM·h

----------
# assay_comment: Single-dose toxicokinetic and tolerability study of prodrugs in dogs
# Type: in vivo, dog
# settings: IVa in female dogs, Iab 90 mg/kg (71 IVa equiv.), Solution; Dogs #3201, #3202
# Method: A multi-phase study was conducted to evaluate the tolerability of the prodrug, Iab (monolysine salt) at dosages of 24, 90, or 240 mg/kg (free acid, molar equivalent to 19, 71, or 190 mg/kg of parent IVa, respectively) and the toxicokinetics of lab and IVa (4). Iab was administered to two female dogs/group once daily either as an aqueous solution (24 or 90 mg/kg) or dry-filled capsules (24, 90 [once and twice daily] or 240 mg/kg). […]
experimental_endpoint: Cmax (µM)
Respond numerically; units are µM and should not be typed.

Fill in: Cmax of "COc1ncc(OC)c2c(C(=O)C(=O)N3CCN(C(=O)c4ccccc4)CC3)c[nH]c12" is ___
125
